# measurement.target: T1, Aurora A kinase (human, UniProt O14965 122-403, limits assumed)
# T1 construct: also called AurA; deP AurA
# T1 sequence: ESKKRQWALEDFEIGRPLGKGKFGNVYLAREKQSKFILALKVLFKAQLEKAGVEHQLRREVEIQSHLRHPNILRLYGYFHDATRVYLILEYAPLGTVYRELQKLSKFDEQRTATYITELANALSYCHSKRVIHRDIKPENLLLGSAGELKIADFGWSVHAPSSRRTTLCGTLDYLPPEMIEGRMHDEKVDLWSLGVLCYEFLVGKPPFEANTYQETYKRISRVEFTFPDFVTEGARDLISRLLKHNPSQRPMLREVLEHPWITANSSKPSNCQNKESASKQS
# test.description: yeast display titration of the clone with wild type Aurora A, mean fluorescence
# log10(Kd) per record follows
// stored as log10 of Kd expressed in nM

Given the binder monobody Mb51 (designed binder, Monobody on a fibronectin type III (FN3) scaffold; also called AuroraA_51) SVSSVPTKLEVVAATPTSLLISWDAKPMSYEPVYYYRITYGETGGNSPVQEFTVPGYYSTATISGLKPGVDYTITVYADSMSSYYYSPISINYRT , write its reported log10(Kd). 0.78

Fill in log10(Kd) for record monobody Mb54 (designed binder, Monobody on a fibronectin type III (FN3) scaffold; also called AuroraA_54) SVSSVPTKLEVVAATPTSLLISWDAQTYQMYDYVSYYRITYGETGGNSPVQEFTVPGYYSTATISGLKPGVDYTITVYAEGYYSSYSPISINYRT 1.91

# return recorded log10(Kd) for input monobody Mb56 (designed binder, Monobody on a fibronectin type III (FN3) scaffold; also called AuroraA_56) SVSSVPTKLEVVAATPTSLLISWDAMSDWYYWVDYYRITYGETGGNSPVQEFTVPGSYSTATISGLKPGVDYTITVYASDDVWGDYSPISINYRT 1.78

Identify the reported log10(Kd) for the following entry. monobody Mb44 (designed binder, Monobody on a fibronectin type III (FN3) scaffold; also called AuroraA_44) SVSSVPTKLEVVAATPTSLLISWDAPAVTVDFYVITYGETGGYSYPWQEFEVPGSKSTATISGLKPGVDYTITVYADYGQYFYSPISINYRT 1.62

Please indicate log10(Kd) recorded for monobody Mb2 (designed binder, Monobody on a fibronectin type III (FN3) scaffold; also called AuroraA_2) SVSSVPTKLEVVAATPTSLLISWDAFGHQYEPVYYYRITYGETGGNSPVQEFTVPGYYSTATISGLKPGVDYTITVYAWYVDGSYSSPISINYRT 1.22

Now for a further binder.
Tell me its log10(Kd) given monobody Mb60 (designed binder, Monobody on a fibronectin type III (FN3) scaffold; also called AuroraA_60) SVSSVPTKLEVVAATPTSLLISWDAPAVTVVHYVITYGETGGNSPVQEFTVPGSKSTATISGLKPGVDYTITVYAIDFYWGSYSPISINYRT as the entry. 1.40
